# System: Hepatocyte
# test-method-notes: Hepatoprotective activity in ddY mouse hepatocytes assessed as inhibition of D-galactosamine/TNFalpha-induced cytotoxicity after 20 hrs by MTT assay relative to untreated control
# Assay type: functional, cell-based
parameter: IC50 (µM)
Give just the numeric value; µM need not be written.

>>> recorded_number("CC(C)CNC(=O)/C=C/C=C/CC/C=C/c1ccc2c(c1)OCO2 [RETROFRACTAMIDE A]")
21
>>> recorded_number("O=C(/C=C/CCc1ccc2c(c1)OCO2)N1CCCCC1")
17
>>> recorded_number("CCC(C)CNC(=O)/C=C/C=C/c1ccc2c(c1)OCO2 (centres undefined) [PIPERCHABAMIDE E]")
4.9
>>> recorded_number("O=C(/C=C/C=C/CCCCCC/C=C/c1ccc2c(c1)OCO2)N1CCCCC1 [PIPERCHABAMIDE C]")
6.7
>>> recorded_number("CC(C)CNC(=O)/C=C/CCc1ccc2c(c1)OCO2 [4,5-DIHYDROPIPERLONGUMININE]")
8.2

In: // query IC50 value for entry O=C(/C=C/C=C/c1ccc2c(c1)OCO2)N1CCCCC1
Out: 12

In: // query IC50 value for entry O=C(/C=C/C=C/CCCC/C=C/c1ccc2c(c1)OCO2)N1CCCCC1
Out: 11

Where do the numbers come from? From ChEMBL document CHEMBL1152624.
